biological target: CCKB receptor (Cavia porcellus, UniProt H0VZC5); construct: Male guinea pig brain tissues were prepared according to the modified method described by Saita et al; from tissue; host or cells: guinea pig cerebral cortex membranes; experiment: 125I-CCK-8 receptor binding assay, CCKB (guinea pig cerebral cortex membranes); conditions: Table 3, diphenyl pyrazolyl ureas; guinea pig cerebral cortex, 125I-Bolton-Hunter CCK 25 pM; read-out: IC50 CCKB
Sequence (H0VZC5 1-426): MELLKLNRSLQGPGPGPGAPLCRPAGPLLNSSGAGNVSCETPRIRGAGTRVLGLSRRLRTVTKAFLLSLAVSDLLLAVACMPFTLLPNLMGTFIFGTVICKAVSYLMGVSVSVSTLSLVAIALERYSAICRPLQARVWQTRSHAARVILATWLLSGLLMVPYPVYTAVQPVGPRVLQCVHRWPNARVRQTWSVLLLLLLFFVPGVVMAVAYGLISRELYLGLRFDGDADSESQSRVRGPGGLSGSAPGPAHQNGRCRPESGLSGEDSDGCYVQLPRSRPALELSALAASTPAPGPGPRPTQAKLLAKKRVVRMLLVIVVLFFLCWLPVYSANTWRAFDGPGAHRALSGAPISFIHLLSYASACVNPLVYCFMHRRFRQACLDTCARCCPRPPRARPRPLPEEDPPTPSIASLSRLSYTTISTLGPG
property: IC50 (µM)

a. Cc1c(NC(=O)Nc2ccccc2[N+](=O)[O-])c(=O)n(-c2ccccc2)n1-c1ccccc1
b. Cc1c(NC(=O)NC(C)(C)C)c(=O)n(-c2ccccc2)n1-c1ccccc1
Exercise: Parameter check: reported IC50 is higher for which label, a or b ? Respond using the label that marks the chosen record.
Key: a
(a: 7.5 µM, b: 1 µM)

* * *

biological target: CCKB receptor (Cavia porcellus, UniProt H0VZC5); construct: Male guinea pig brain tissues were prepared according to the modified method described by Saita et al; from tissue; host or cells: guinea pig cerebral cortex membranes; assay: 125I-CCK-8 receptor binding assay, CCKB (guinea pig cerebral cortex membranes); settings: Table 3, diphenyl pyrazolyl ureas; guinea pig cerebral cortex, 125I-Bolton-Hunter CCK 25 pM; read-out: IC50 CCKB
pIC50: −log10 of the molar value.
property: pIC50

# count of solved cases: 3
Exercise: So what's the measured pIC50 for this one? "Cc1c(NC(=O)Nc2cccc3ccccc23)c(=O)n(-c2ccccc2)n1-c1ccccc1"
Key: < 4.70

Exercise: And "Cc1c(NC(=O)Nc2ccccc2)c(=O)n(-c2ccccc2)n1-c1ccccc1" ?
Key: 5.52

Exercise: And "COc1ccc(NC(=O)Nc2c(C)n(-c3ccccc3)n(-c3ccccc3)c2=O)cc1" ?
Key: < 4.70

As a next step, examine the molecule that follows.
Exercise: So what's the measured pIC50 for this one? "Cc1c(NC(=O)Nc2ccc(Br)cc2)c(=O)n(-c2ccccc2)n1-c1ccccc1"
Key: < 4.70

* * *

Biological target: CCKA receptor (Rattus norvegicus, UniProt P30551)
Construct: Pancreatic membranes were prepared in a similar way but by Charpentier et al; from tissue; host or cells: rat pancreas membranes
Sequence (P30551 1-444): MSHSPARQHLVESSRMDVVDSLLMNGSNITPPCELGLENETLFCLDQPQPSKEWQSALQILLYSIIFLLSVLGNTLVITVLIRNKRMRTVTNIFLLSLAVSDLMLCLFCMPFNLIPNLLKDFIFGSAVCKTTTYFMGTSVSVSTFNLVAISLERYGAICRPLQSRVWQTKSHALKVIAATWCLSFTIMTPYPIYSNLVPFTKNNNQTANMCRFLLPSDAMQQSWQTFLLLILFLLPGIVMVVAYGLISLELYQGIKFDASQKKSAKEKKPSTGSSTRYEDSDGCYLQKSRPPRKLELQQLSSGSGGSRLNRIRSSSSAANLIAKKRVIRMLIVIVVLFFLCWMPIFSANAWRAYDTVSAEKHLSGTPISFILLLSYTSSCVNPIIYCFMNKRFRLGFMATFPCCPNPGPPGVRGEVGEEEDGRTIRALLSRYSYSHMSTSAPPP
Assay: 125I-CCK-8 receptor binding assay, CCKA (rat pancreas membranes)
Conditions: Table 4, diphenyl pyrazolinone amides; rat pancreas, 125I-Bolton-Hunter CCK 25 pM; read-out: IC50 CCKA
pIC50: −log10 of the molar value.
property: pIC50

Exercise: So what's the measured pIC50 for this one? "Cc1c(NC(=O)c2cc3ccccc3[nH]2)c(=O)n(-c2ccccc2)n1-c1ccccc1"
Key: 7.70

Exercise: And "Cc1c(NC(=O)Cc2c[nH]c3ccccc23)c(=O)n(-c2ccccc2)n1-c1ccccc1" ?
Key: 7.70

P. Cc1c(NC(=O)CCc2c[nH]c3ccccc23)c(=O)n(-c2ccccc2)n1-c1ccccc1
Q. Cc1c(NC(=O)c2c[nH]c3ccccc23)c(=O)n(-c2ccccc2)n1-c1ccccc1
Exercise: Parameter check: reported pIC50 is higher for which label, P or Q ? Respond using the label that marks the chosen record.
Key: P
(P: 7.60, Q: 5.70)

Origin of the recorded values: patent US20070185115A1
